Items are presented alongside their recorded pIC50.
- measurementTarget: H1 HA A/Brisbane/59/07 (Influenza A virus, UniProt D5F1Q8)
- methodDescription: AlphaLISA binding competition, HA + stem-binder
*1 amine or outer side, *2 acyl side, *3 side chain or, on linkers, in order; H or OH if unused. Where a SMILES comes first, the peptide text is derived from it. Bridges are numbered along the chain shown (N, C = ends). [ ]: non-standard residue; d: D form. X1 = NCCC(=O)N[C@@H](CN[*:2])C(=O)[*:1]; Ala(cPent) = N[C@@H](CC1CCCC1)C(=O)O; hhPhe = N[C@@H](CCCc1ccccc1)C(=O)O; NMeL = CN[C@@H](CC(C)C)C(=O)O; Orn = NCCC[C@H](N)C(=O)O; βAla = NCCC(=O)O
Scale explanation: pIC50 corresponds to minus log10 of a concentration expressed in moles per litre.

See these solved cases before continuing.
# compound, numericReadout
records = [
    ("CC(=O)N[C@@H](CCCc1ccccc1)C(=O)N[C@H]1CCCNC(=O)[C@@H](NC(=O)CCN)CNC(=O)[C@H](CO)NC(=O)[C@H](CC(C)C)NC(=O)[C@H](Cc2c[nH]c3ccccc23)NC(=O)[C@H](CCC(=O)O)NC(=O)[C@H](Cc2ccccc2)NC(=O)[C@H](Cc2ccc(O)cc2)NC(=O)[C@H](CCC(=O)O)NC(=O)[C@H](CC(C)C)NC1=O [CP141099] (Ac-[hhPhe][Orn]LEYFEWLS; linker 2-C via X1)", 7.17),
    ("CC(=O)N[C@@H](CCCc1ccccc1)C(=O)N[C@H]1CCCNC(=O)CCNC(=O)[C@H](CO)NC(=O)[C@H](CC(C)C)NC(=O)[C@H](Cc2c[nH]c3ccccc23)NC(=O)[C@H](CCC(=O)O)NC(=O)[C@H](Cc2ccccc2)NC(=O)[C@H](Cc2ccc(O)cc2)NC(=O)[C@H](CCC(=O)O)NC(=O)[C@H](CC2CCCC2)NC1=O [CP141036] (Ac-[hhPhe][Orn][Ala(cPent)]EYFEWLS[βAla]; lactam 2-C)", 6.84),
]

// next item, pIC50 requested
What measured pIC50 goes with CC(=O)N[C@@H](CCCc1ccccc1)C(=O)N[C@H]1CCCNC(=O)CCNC(=O)[C@H](CO)NC(=O)[C@H](CC(C)C)NC(=O)[C@H](Cc2c[nH]c3ccccc23)NC(=O)[C@H](CCC(=O)O)NC(=O)[C@H](Cc2ccccc2)NC(=O)[C@H](Cc2ccc(O)cc2)NC(=O)[C@H](CCC(=O)O)NC(=O)[C@H](CC(C)C)N(C)C1=O [CP141037] (Ac-[hhPhe][Orn][NMeL]EYFEWLS[βAla]; lactam 2-C) ?
7.06

====

- measurementTarget: H1 HA A/Brisbane/59/07 (Influenza A virus)
- methodDescription: AlphaLISA binding competition, HA + stem-binder
- From the text: Binding competition studies were designed to test compounds for competition with other well characterized HA binding proteins (including e.g. CR9114) with known epitopes on HA. The epitopes where either located at the stem of the HA (viral membrane proximal part of HA) or, for control purposes, at the head of HA (viral membrane distal part of HA). If competition was observed, it is assumed that both molecules bind to a similar or at least overlapping epitope at the surface of HA. […]
Where a SMILES comes first, the peptide text is derived from it. Bridges are numbered along the chain shown (N, C = ends). [ ]: non-standard residue; d: D form. Phe(3,4-Cl2) = N[C@@H](Cc1ccc(Cl)c(Cl)c1)C(=O)O; hhPhe = N[C@@H](CCCc1ccccc1)C(=O)O; Orn = NCCC[C@H](N)C(=O)O; βAla = NCCC(=O)O
measuredAttribute: pIC50
Scale explanation: pIC50 corresponds to minus log10 of a concentration expressed in moles per litre.

What measured pIC50 goes with CC(=O)N[C@@H](CCCc1ccccc1)C(=O)N[C@H]1CCCNC(=O)CCNC(=O)[C@H](CO)NC(=O)[C@H](CC(C)C)NC(=O)[C@H](Cc2c[nH]c3ccccc23)NC(=O)[C@H](CCC(=O)O)NC(=O)[C@H](Cc2ccc(Cl)c(Cl)c2)NC(=O)[C@H](Cc2ccc(O)cc2)NC(=O)[C@H](CCC(=O)O)NC(=O)[C@H](CC(C)C)NC1=O [CP141019] (Ac-[hhPhe][Orn]LEY[Phe(3,4-Cl2)]EWLS[βAla]; lactam 2-C) ?
7.33
